- experiment description: Inhibition of BCRP in human MCF7/MX100 cells assessed as reversal of topotecan resistance after 5 days by MTS/PMS assay
observation type: pEC50
The scale used: pEC50 is minus the common logarithm of the concentration in molar units.

For the compound "O=c1cc(-c2ccccc2)oc2cc(OCCOCCn3cc(CN(Cc4ccccc4)Cc4cn(CCOCCOc5ccc6c(=O)cc(-c7ccccc7)oc6c5)nn4)nn3)ccc12" , report pEC50.
6.56

Provide only the value of recorded pEC50 for "Cc1ccc2oc(-c3ccc(OCCOCCOCCOCCOCCOc4ccc(-c5cc(=O)c6cc(C)ccc6o5)cc4)cc3)cc(=O)c2c1"
7.20

// fetch pEC50 given entry "Cc1ccc2oc(-c3ccc(OCCCCc4cn(CCOCCOCCOc5ccc6c(=O)cc(-c7ccccc7)oc6c5)nn4)cc3)cc(=O)c2c1"
6.82

Name the recorded pEC50 of the item "O=c1cc(-c2ccccc2)oc2cc(OCCOCCn3cc(COCCOc4ccc5c(=O)cc(-c6ccccc6)oc5c4)nn3)ccc12" in your answer.
6.51

Name the recorded pEC50 of the compound listed here: "Cc1ccc2oc(-c3ccc(OCCOCCOCCn4cc(CCCOc5ccc6c(=O)cc(-c7ccccc7)oc6c5)nn4)cc3)cc(=O)c2c1"
6.73

Item "O=c1cc(-c2ccc(OCCOCCn3cc(CCCCOc4ccc5c(=O)cc(-c6ccccc6)oc5c4)nn3)cc2)oc2ccccc12" : provide pEC50
7.60

Provide pEC50 value for the following compound: "O=c1cc(-c2ccccc2)oc2cc(OCCOCCOCCn3cc(CN(Cc4ccccc4)Cc4cn(CCOCCOCCOc5ccc6c(=O)cc(-c7ccccc7)oc6c5)nn4)nn3)ccc12"
6.60

Tell me measured pEC50 for "Cc1ccc2oc(-c3ccc(OCCCCc4cn(CCOCCOCCOc5ccc(-c6oc7ccccc7c(=O)c6OCc6ccccc6)cc5)nn4)cc3)cc(=O)c2c1" please.
7.70

Query pEC50 for "O=c1cc(-c2ccccc2)oc2cc(OCCCCc3cn(CCOCCOCCOc4ccc(-c5oc6ccccc6c(=O)c5OCc5ccccc5)cc4)nn3)ccc12"
7.80

Look up and state reported pEC50 for "COC(=O)c1cccc(COc2c(-c3ccc(OCCOCCn4cc(COCc5cn(CCOCCOc6ccc(-c7oc8ccccc8c(=O)c7OCc7cccc(C(=O)OC)c7)cc6)nn5)nn4)cc3)oc3ccccc3c2=O)c1"
8.68

Please report the measured pEC50 for "O=c1cc(-c2ccc(OCCCc3cn(CCOCCOCCOc4ccc5c(=O)cc(-c6ccccc6)oc5c4)nn3)cc2)oc2cc(F)ccc12"
7.57

Please give the documented pEC50 of "O=c1cc(-c2ccccc2)oc2cc(OCCOCc3cn(CCOCCOCCOc4ccc(-c5cc(=O)c6cc(F)ccc6o5)cc4)nn3)ccc12"
6.58

Return the recorded pEC50 value; entry: "Cc1ccc2oc(-c3ccc(OCCCCc4cn(CCN(CCOc5ccc6c(=O)cc(-c7ccccc7)oc6c5)Cc5ccccc5)nn4)cc3)cc(=O)c2c1"
6.43

----------
- experiment description: Inhibition of BCRP (unknown origin) transfected in human HEK293/R2 cells assessed as potentiation of topotecan-induced cytotoxicity measured as topotecan IC50 at 1 uM (Rvb = 531.5 +/- 180 nM)
observation type: pIC50
pIC50 field: float, defined as -log10 of concentration (mol/L).

For "COC(=O)c1cccc(COc2c(-c3ccc(OCCOCCn4cc(-c5cccc(-c6cn(CCOCCOc7ccc(-c8oc9ccccc9c(=O)c8OCc8cccc(C(=O)OC)c8)cc7)nn6)c5)nn4)cc3)oc3ccccc3c2=O)c1" , write its pIC50.
7.60

Give the value of pIC50 reported for the following: "COC(=O)c1cccc(COc2c(-c3ccc(OCCOCCn4cc(COCc5cn(CCOCCOc6ccc(-c7oc8ccccc8c(=O)c7OCc7cccc(C(=O)OC)c7)cc6)nn5)nn4)cc3)oc3ccccc3c2=O)c1"
7.70

Kindly indicate its recorded pIC50. Item: "COC(=O)c1cccc(COc2c(-c3ccc(OCCOCCn4cc(CCCc5cn(CCOCCOc6ccc(-c7oc8ccccc8c(=O)c7OCc7cccc(C(=O)OC)c7)cc6)nn5)nn4)cc3)oc3ccccc3c2=O)c1"
7.72

Return value of pIC50 for input "COC(=O)c1cccc(COc2c(-c3ccc(OCCOCCn4cc(CN(Cc5ccccc5)Cc5cn(CCOCCOc6ccc(-c7oc8ccccc8c(=O)c7OCc7cccc(C(=O)OC)c7)cc6)nn5)nn4)cc3)oc3ccccc3c2=O)c1" , no commentary.
7.82

----------
- experiment description: Inhibition of P-gp (unknown origin) expressed in human LCC6MDR cells assessed as reversal of paclitaxel resistance after 5 days by MTS/PMS assay
For each record, check the reported EC50: if it is below 300 nM write label 1, else write label 0.

Hi there! Is EC50 for "Cc1ccc2oc(-c3ccc(OCCCCc4cn(CCOCCOCCOc5ccc(-c6cc(=O)c7ccccc7o6)cc5)nn4)cc3)cc(=O)c2c1" below 300 nM, do you know?
label 0

For this compound, is EC50 lower than 300 nM? "O=c1cc(-c2ccc(OCCCc3cn(CCOCCOCCOc4ccc(-c5oc6ccccc6c(=O)c5OCc5ccccc5)cc4)nn3)cc2)oc2cc(F)ccc12"
label 0

Is the reported EC50 for "O=c1cc(-c2ccccc2)oc2cc(OCCOCCOCCn3cc(CN(Cc4ccccc4)Cc4cn(CCOCCOCCOc5ccc6c(=O)cc(-c7ccccc7)oc6c5)nn4)nn3)ccc12" strictly below 300 nM?
label 0

Would you kindly verify if EC50 of "Cc1ccc2oc(-c3ccc(OCCOCCOCCn4cc(CCCOc5ccc(-c6cc(=O)c7ccc(F)cc7o6)cc5)nn4)cc3)cc(=O)c2c1" is strictly less than 300 nM?
label 1

Is EC50 strictly under 300 nM for the entry "O=c1cc(-c2ccc(OCCOCCOCCn3cc(COCCOc4ccc5c(=O)cc(-c6ccccc6)oc5c4)nn3)cc2)oc2ccccc12" ?
label 0

Lab log: compare recorded EC50 with 300 nM; is it strictly lower for "O=c1cc(-c2ccc(OCCOCCn3cc(CCCCOc4ccc5c(=O)cc(-c6ccccc6)oc5c4)nn3)cc2)oc2ccccc12" ?
label 0

Report whether reported EC50 is lower than 300 nM (strictly) for "Cc1ccc2oc(-c3ccc(OCCOCCOCCOCCOCCOc4ccc(-c5cc(=O)c6cc(C)ccc6o5)cc4)cc3)cc(=O)c2c1"
label 1

EC50 under 300 nM? Item: "O=c1cc(-c2ccc(OCCOCCn3cc(CCCOc4ccc(-c5cc(=O)c6ccc(F)cc6o5)cc4)nn3)cc2)oc2ccccc12"
label 1

Check if EC50 falls below 300 nM for "O=c1cc(-c2ccc(OCCCc3cn(CCOCCOCCOc4ccc(-c5cc(=O)c6cc(F)ccc6o5)cc4)nn3)cc2)oc2cc(F)ccc12" .
label 1

Please state whether EC50 is below 300 nM for "O=c1cc(-c2ccccc2)oc2cc(OCCOCCn3cc(CN(Cc4ccccc4)Cc4cn(CCOCCOc5ccc6c(=O)cc(-c7ccccc7)oc6c5)nn4)nn3)ccc12"
label 0

Does "O=c1cc(-c2ccc(OCCOCCn3cc(CN(Cc4ccccc4)Cc4cn(CCOCCOc5ccc(-c6cc(=O)c7ccccc7o6)cc5)nn4)nn3)cc2)oc2ccccc12" have EC50 strictly under 300 nM?
label 0

Here's an entry: "O=c1cc(-c2ccccc2)oc2cc(OCCOCCOCCn3cc(COCCOc4ccc5c(=O)cc(-c6ccccc6)oc5c4)nn3)ccc12" . Is its EC50 below 300 nM?
label 0

EC50 under 300 nM? Item: COc1ccc2c3c([nH]c2c1)[C@H](CC(C)C)N1C(=O)[C@H](CCC(=O)OC(C)(C)C)NC(=O)[C@@H]1C3 [Ko143]
label 0

I'd appreciate it if you could check whether "Cc1ccc2oc(-c3ccc(OCCCCc4cn(CCOCCOCCOc5ccc(-c6cc(=O)c7cc(F)ccc7o6)cc5)nn4)cc3)cc(=O)c2c1" has EC50 smaller than 300 nM.
label 0

----------
Answer each item with its documented pEC50.
- experiment description: Inhibition of BCRP (unknown origin) transfected in HEK293/R2 cells assessed as reversal of topotecan resistance after 5 days by MTS/PMS assay
Units for pEC50: none; it is -log10 of a concentration expressed in mol/L.

Quote pEC50 reported for "O=c1cc(-c2ccc(OCCOCCn3cc(CCCOc4ccc(-c5cc(=O)c6ccc(F)cc6o5)cc4)nn3)cc2)oc2ccccc12" please.
8.14

Supply recorded pEC50 for "COC(=O)c1cccc(COc2c(-c3ccc(OCCOCCn4cc(-c5ccc(-c6cn(CCOCCOc7ccc(-c8oc9ccccc9c(=O)c8OCc8cccc(C(=O)OC)c8)cc7)nn6)cc5)nn4)cc3)oc3ccccc3c2=O)c1" here.
7.85

Query pEC50 for "COC(=O)c1cccc(COc2c(-c3ccc(OCCOCCOCCn4cc(CCCOc5ccc6c(=O)cc(-c7ccccc7)oc6c5)nn4)cc3)oc3ccccc3c2=O)c1"
8.46

Write down pEC50 measured for item "COC(=O)c1cccc(COc2c(-c3ccc(OCCOCCn4cc(CCCOc5ccc6c(=O)cc(-c7ccccc7)oc6c5)nn4)cc3)oc3ccccc3c2=O)c1"
8.14

Supply measured pEC50 of "COC(=O)c1cccc(COc2c(-c3ccc(OCCOCCn4cc(-c5cccc(-c6cn(CCOCCOc7ccc(-c8oc9ccccc9c(=O)c8OCc8cccc(C(=O)OC)c8)cc7)nn6)c5)nn4)cc3)oc3ccccc3c2=O)c1" in your reply.
8.66

Query pEC50 for "Cc1ccc2oc(-c3ccc(OCCCCc4cn(CCOCCOc5ccc(-c6cc(=O)c7ccccc7o6)cc5)nn4)cc3)cc(=O)c2c1"
7.17

Specify reported pEC50 for the molecule shown: "COC(=O)c1cccc(COc2c(-c3ccc(OCCOCCn4cc(CCCOc5ccc(-c6cc(=O)c7ccc(F)cc7o6)cc5)nn4)cc3)oc3ccccc3c2=O)c1"
8.02

Answer with reported pEC50 of "O=c1cc(-c2ccc(OCCOCCOCCn3cc(CN(CCOc4ccc5c(=O)cc(-c6ccccc6)oc5c4)Cc4ccccc4)nn3)cc2)oc2ccccc12"
7.43

Indicate its recorded pEC50; the molecule in question is "COC(=O)c1cccc(COc2c(-c3ccc(OCCOCCn4cc(CN5CCN(Cc6cn(CCOCCOc7ccc(-c8oc9ccccc9c(=O)c8OCc8cccc(C(=O)OC)c8)cc7)nn6)CC5)nn4)cc3)oc3ccccc3c2=O)c1"
7.74

Provide one value: measured pEC50 of "O=c1cc(-c2ccccc2)oc2cc(OCCN(Cc3ccccc3)Cc3cn(CCOCCOCCOc4ccc(-c5cc(=O)c6cc(F)ccc6o5)cc4)nn3)ccc12"
7.57

Note pEC50 for the molecule shown: "COC(=O)c1cccc(COc2c(-c3ccc(OCCOCCn4cc(CN(Cc5ccncc5)Cc5cn(CCOCCOc6ccc(-c7oc8ccccc8c(=O)c7OCc7cccc(C(=O)OC)c7)cc6)nn5)nn4)cc3)oc3ccccc3c2=O)c1"
7.31

Dear colleague, please send me the reported pEC50 for "COC(=O)c1cccc(COc2c(-c3ccc(OCCOCCn4cc(CCCCOc5ccc6c(=O)cc(-c7ccccc7)oc6c5)nn4)cc3)oc3ccccc3c2=O)c1" when you can.
8.28
